What GI50 was measured for each of the following?
- System: SF-295 CNS
- method_description: NCI tumour cell line growth inhibition, 48 h

# GI50 lookup, item "Cc1ccc2[nH]cc(-c3nc(-c4c[nH]c5ncccc45)cs3)c2c1" > 100 µM

# GI50 lookup, item "N#Cc1c(Sc2ccccc2N)cccc1Sc1ccccc1N" 84 µM

# GI50 lookup, item "N=C1C(c2nc(-c3ccc(Br)cc3)cs2)=C(O)CN1Cc1cccnc1" 16.6 µM

# GI50 lookup, item "CCOC(=O)c1c2c(n3ccc(NC(=O)CCN4CCCC4)cc13)C(=O)c1ncccc1C2=O" 1.1 µM

# GI50 lookup, item "ClCc1cccc(Cn2cnc3c(Cl)ncnc32)c1" 3.25 µM

# GI50 lookup, item "COc1nc(N(C)O)nc(N(C)O)n1" 2.2 µM

# GI50 lookup, item C=C1CC2(OC1=O)C(=O)N(CCCCCCCN1C(=O)C3(CC(=C)C(=O)O3)c3ccccc31)c1ccccc12 (stereo not given) 10.2 µM

# GI50 lookup, item "COc1ccc(Cl)cc1Nc1nc(C(F)(F)F)ccc1C(=O)N/N=C/c1c(Cl)cccc1Cl" 3.34 µM

# GI50 lookup, item "Cc1ccc(CNc2c3ccccc3nc3ccccc23)cc1" 2.53 µM

# GI50 lookup, item "COc1cc(-c2nn(-c3ccc(NC(=O)c4ccc(Cl)c(Cl)c4)cc3)cc2-c2ccncc2)ccc1Cl" 1.94 µM
